Taken from BigSolDB 2.1.

Conditions: in ethanol, 308.15 K
Parameter: solubility (mole fraction)
Field format: numeric only.

[Q] Which solubility (mole fraction) reading was recorded for the compound CC(CCc1ccccc1)NCC(O)c1ccc(O)c(C(N)=O)c1.Cl (stereo unspecified) ?
[A] 0.00222

###

Conditions: in ethyl acetate, 308.15 K
Parameter: solubility (mole fraction)
Field format: numeric only.

[Q] Which solubility (mole fraction) reading was recorded for the molecule CC(CCc1ccccc1)NCC(O)c1ccc(O)c(C(N)=O)c1.Cl (stereo unspecified) ?
[A] 0.000406

###

Conditions: in isopropanol, 328.15 K
Parameter: solubility (mole fraction)
Field format: numeric only.

[Q] Which solubility (mole fraction) reading was recorded for the compound CC(CCc1ccccc1)NCC(O)c1ccc(O)c(C(N)=O)c1.Cl (stereo unspecified) ?
[A] 0.00194

###

Settings: in n-butanol, 308.15 K
Parameter: solubility (mole fraction)
Field format: numeric only.

[Q] Which solubility (mole fraction) reading was recorded for the compound CC(CCc1ccccc1)NCC(O)c1ccc(O)c(C(N)=O)c1.Cl (stereo unspecified) ?
[A] 0.000808

###

Details: in ethanol, 293.15 K
Parameter: solubility (mole fraction)
Field format: numeric only.

[Q] Which solubility (mole fraction) reading was recorded for the compound CC(CCc1ccccc1)NCC(O)c1ccc(O)c(C(N)=O)c1.Cl (stereo unspecified) ?
[A] 0.00145

###

Details: in sec-butanol, 298.15 K
Parameter: solubility (mole fraction)
Field format: numeric only.

[Q] Which solubility (mole fraction) reading was recorded for the compound CC(CCc1ccccc1)NCC(O)c1ccc(O)c(C(N)=O)c1.Cl (stereo unspecified) ?
[A] 0.000278

###

Conditions: in methanol, 293.15 K
Parameter: solubility (mole fraction)
Field format: numeric only.

[Q] Which solubility (mole fraction) reading was recorded for the molecule CC(CCc1ccccc1)NCC(O)c1ccc(O)c(C(N)=O)c1.Cl (stereo unspecified) ?
[A] 0.0101

###

Settings: in n-butanol, 303.15 K
Parameter: solubility (mole fraction)
Field format: numeric only.

[Q] Which solubility (mole fraction) reading was recorded for the compound CC(CCc1ccccc1)NCC(O)c1ccc(O)c(C(N)=O)c1.Cl (stereo unspecified) ?
[A] 0.000675

###

Conditions: in water, 308.15 K
Parameter: solubility (mole fraction)
Field format: numeric only.

[Q] Which solubility (mole fraction) reading was recorded for the compound CC(CCc1ccccc1)NCC(O)c1ccc(O)c(C(N)=O)c1.Cl (stereo unspecified) ?
[A] 0.00172

###

Conditions: in water, 298.15 K
Parameter: solubility (mole fraction)
Field format: numeric only.

[Q] Which solubility (mole fraction) reading was recorded for the compound CC(CCc1ccccc1)NCC(O)c1ccc(O)c(C(N)=O)c1.Cl (stereo unspecified) ?
[A] 0.00118

###

Settings: in methanol, 313.15 K
Parameter: solubility (mole fraction)
Field format: numeric only.

[Q] Which solubility (mole fraction) reading was recorded for the compound CC(CCc1ccccc1)NCC(O)c1ccc(O)c(C(N)=O)c1.Cl (stereo unspecified) ?
[A] 0.0162

###

Conditions: in methanol, 303.15 K
Parameter: solubility (mole fraction)
Field format: numeric only.

[Q] Which solubility (mole fraction) reading was recorded for the compound CC(CCc1ccccc1)NCC(O)c1ccc(O)c(C(N)=O)c1.Cl (stereo unspecified) ?
[A] 0.013

###

Conditions: in water, 293.15 K
Parameter: solubility (mole fraction)
Field format: numeric only.

[Q] Which solubility (mole fraction) reading was recorded for the compound CC(CCc1ccccc1)NCC(O)c1ccc(O)c(C(N)=O)c1.Cl (stereo unspecified) ?
[A] 0.000898

###

Details: in sec-butanol, 288.15 K
Parameter: solubility (mole fraction)
Field format: numeric only.

[Q] Which solubility (mole fraction) reading was recorded for the compound CC(CCc1ccccc1)NCC(O)c1ccc(O)c(C(N)=O)c1.Cl (stereo unspecified) ?
[A] 0.000167

###

Conditions: in n-propanol, 288.15 K
Parameter: solubility (mole fraction)
Field format: numeric only.

[Q] Which solubility (mole fraction) reading was recorded for the compound CC(CCc1ccccc1)NCC(O)c1ccc(O)c(C(N)=O)c1.Cl (stereo unspecified) ?
[A] 0.000478

###

Settings: in n-butanol, 313.15 K
Parameter: solubility (mole fraction)
Field format: numeric only.

[Q] Which solubility (mole fraction) reading was recorded for the compound CC(CCc1ccccc1)NCC(O)c1ccc(O)c(C(N)=O)c1.Cl (stereo unspecified) ?
[A] 0.000967

###

Details: in isopropanol, 313.15 K
Parameter: solubility (mole fraction)
Field format: numeric only.

[Q] Which solubility (mole fraction) reading was recorded for the compound CC(CCc1ccccc1)NCC(O)c1ccc(O)c(C(N)=O)c1.Cl (stereo unspecified) ?
[A] 0.000675

###

Details: in sec-butanol, 308.15 K
Parameter: solubility (mole fraction)

[Q] Which solubility (mole fraction) reading was recorded for the molecule CC(CCc1ccccc1)NCC(O)c1ccc(O)c(C(N)=O)c1.Cl (stereo unspecified) ?
[A] 0.000411

###

Conditions: in ethyl acetate, 303.15 K
Parameter: solubility (mole fraction)
Field format: numeric only.

[Q] Which solubility (mole fraction) reading was recorded for the compound CC(CCc1ccccc1)NCC(O)c1ccc(O)c(C(N)=O)c1.Cl (stereo unspecified) ?
[A] 0.000302

###

Conditions: in n-butanol, 318.15 K
Parameter: solubility (mole fraction)
Field format: numeric only.

[Q] Which solubility (mole fraction) reading was recorded for the molecule CC(CCc1ccccc1)NCC(O)c1ccc(O)c(C(N)=O)c1.Cl (stereo unspecified) ?
[A] 0.00116

###

Conditions: in ethyl acetate, 318.15 K
Parameter: solubility (mole fraction)

[Q] Which solubility (mole fraction) reading was recorded for the molecule CC(CCc1ccccc1)NCC(O)c1ccc(O)c(C(N)=O)c1.Cl (stereo unspecified) ?
[A] 0.000689

###

Conditions: in water, 323.15 K
Parameter: solubility (mole fraction)
Field format: numeric only.

[Q] Which solubility (mole fraction) reading was recorded for the compound CC(CCc1ccccc1)NCC(O)c1ccc(O)c(C(N)=O)c1.Cl (stereo unspecified) ?
[A] 0.00337

###

Conditions: in isopropanol, 293.15 K
Parameter: solubility (mole fraction)
Field format: numeric only.

[Q] Which solubility (mole fraction) reading was recorded for the molecule CC(CCc1ccccc1)NCC(O)c1ccc(O)c(C(N)=O)c1.Cl (stereo unspecified) ?
[A] 0.000164

###

Settings: in sec-butanol, 303.15 K
Parameter: solubility (mole fraction)
Field format: numeric only.

[Q] Which solubility (mole fraction) reading was recorded for the molecule CC(CCc1ccccc1)NCC(O)c1ccc(O)c(C(N)=O)c1.Cl (stereo unspecified) ?
[A] 0.000336

###

Settings: in isobutanol, 303.15 K
Parameter: solubility (mole fraction)
Field format: numeric only.

[Q] Which solubility (mole fraction) reading was recorded for the compound CC(CCc1ccccc1)NCC(O)c1ccc(O)c(C(N)=O)c1.Cl (stereo unspecified) ?
[A] 0.000326

###

Details: in methanol, 298.15 K
Parameter: solubility (mole fraction)
Field format: numeric only.

[Q] Which solubility (mole fraction) reading was recorded for the compound CC(CCc1ccccc1)NCC(O)c1ccc(O)c(C(N)=O)c1.Cl (stereo unspecified) ?
[A] 0.0114

###

Conditions: in isobutanol, 308.15 K
Parameter: solubility (mole fraction)
Field format: numeric only.

[Q] Which solubility (mole fraction) reading was recorded for the compound CC(CCc1ccccc1)NCC(O)c1ccc(O)c(C(N)=O)c1.Cl (stereo unspecified) ?
[A] 0.000429

###

Details: in sec-butanol, 293.15 K
Parameter: solubility (mole fraction)

[Q] Which solubility (mole fraction) reading was recorded for the molecule CC(CCc1ccccc1)NCC(O)c1ccc(O)c(C(N)=O)c1.Cl (stereo unspecified) ?
[A] 0.000211

###

Conditions: in sec-butanol, 313.15 K
Parameter: solubility (mole fraction)
Field format: numeric only.

[Q] Which solubility (mole fraction) reading was recorded for the compound CC(CCc1ccccc1)NCC(O)c1ccc(O)c(C(N)=O)c1.Cl (stereo unspecified) ?
[A] 0.000515

###

Conditions: in isopropanol, 318.15 K
Parameter: solubility (mole fraction)

[Q] Which solubility (mole fraction) reading was recorded for the compound CC(CCc1ccccc1)NCC(O)c1ccc(O)c(C(N)=O)c1.Cl (stereo unspecified) ?
[A] 0.000985

###

Details: in water, 328.15 K
Parameter: solubility (mole fraction)
Field format: numeric only.

[Q] Which solubility (mole fraction) reading was recorded for the compound CC(CCc1ccccc1)NCC(O)c1ccc(O)c(C(N)=O)c1.Cl (stereo unspecified) ?
[A] 0.00409

###

Conditions: in n-propanol, 328.15 K
Parameter: solubility (mole fraction)
Field format: numeric only.

[Q] Which solubility (mole fraction) reading was recorded for the molecule CC(CCc1ccccc1)NCC(O)c1ccc(O)c(C(N)=O)c1.Cl (stereo unspecified) ?
[A] 0.00194

###

Details: in isopropanol, 303.15 K
Parameter: solubility (mole fraction)
Field format: numeric only.

[Q] Which solubility (mole fraction) reading was recorded for the compound CC(CCc1ccccc1)NCC(O)c1ccc(O)c(C(N)=O)c1.Cl (stereo unspecified) ?
[A] 0.000355

###

Settings: in water, 318.15 K
Parameter: solubility (mole fraction)

[Q] Which solubility (mole fraction) reading was recorded for the compound CC(CCc1ccccc1)NCC(O)c1ccc(O)c(C(N)=O)c1.Cl (stereo unspecified) ?
[A] 0.00266

###

Conditions: in ethyl acetate, 293.15 K
Parameter: solubility (mole fraction)
Field format: numeric only.

[Q] Which solubility (mole fraction) reading was recorded for the compound CC(CCc1ccccc1)NCC(O)c1ccc(O)c(C(N)=O)c1.Cl (stereo unspecified) ?
[A] 0.000163
